FYI, the data here is from paper PMC6510727.

biological target: transducin α (Tα-S*) (Bos taurus, UniProt P04695); experiment: PDE activation assay fit (solution)
Sequence (P04695 2-350): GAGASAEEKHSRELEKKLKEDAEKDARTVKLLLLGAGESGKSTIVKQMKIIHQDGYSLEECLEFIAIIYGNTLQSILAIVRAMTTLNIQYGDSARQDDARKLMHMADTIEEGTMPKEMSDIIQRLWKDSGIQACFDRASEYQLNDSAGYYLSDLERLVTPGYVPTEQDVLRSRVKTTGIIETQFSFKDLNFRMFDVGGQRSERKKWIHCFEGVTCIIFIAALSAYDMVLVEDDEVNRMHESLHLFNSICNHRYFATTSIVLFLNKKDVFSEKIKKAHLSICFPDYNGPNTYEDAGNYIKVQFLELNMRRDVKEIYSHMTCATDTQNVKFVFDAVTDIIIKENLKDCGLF
Measured Quantity: Kd (nM)
Expressed in nM, but write only the number.

// recorded Kd for PDEγ (protein, GTPγS-bound Tα) MNLEPPKAEIRSATRVMGGPVTPRKGPPKFKQRQTRQFKSKPPKKGVQGFGDDIPGMEGLGTDITVICPWEAFNHLELHELAQYGII : 4.5
